Exercise: state measured inhibition for each of the molecules provided.
target_or_test_system: Solute carrier family 2, facilitated glucose transporter member 1 (Homo sapiens) (UniProt P11166)
Sequence (P11166 whole entry): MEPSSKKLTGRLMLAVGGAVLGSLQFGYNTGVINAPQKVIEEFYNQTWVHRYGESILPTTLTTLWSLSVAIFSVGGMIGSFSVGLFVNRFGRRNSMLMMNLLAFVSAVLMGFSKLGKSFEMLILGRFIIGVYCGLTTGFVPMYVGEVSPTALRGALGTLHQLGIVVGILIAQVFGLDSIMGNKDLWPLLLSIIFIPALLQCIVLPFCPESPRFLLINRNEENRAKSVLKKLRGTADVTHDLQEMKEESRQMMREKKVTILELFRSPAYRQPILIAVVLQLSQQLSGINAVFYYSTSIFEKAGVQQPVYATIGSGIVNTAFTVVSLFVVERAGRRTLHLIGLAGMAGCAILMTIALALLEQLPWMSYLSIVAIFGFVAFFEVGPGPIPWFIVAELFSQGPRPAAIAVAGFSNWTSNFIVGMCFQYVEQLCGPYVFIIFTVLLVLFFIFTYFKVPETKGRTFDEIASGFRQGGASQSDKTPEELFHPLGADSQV
measurement_protocol: ST_JUDE_LEISH: Cytotoxicity at 2uM final concentration against transgenic Leishmania Mexicana promastigotes LmGLUT1 that are glucose transport deficient and complemented with the human glucose transporter GLUT1. Activity is measured by DNA content using SYBR green in vitro
Assay type: functional
Return type: number; implicit unit %.

For the molecule shown here, O=C(O)c1ccc(OCOCOc2ccc(C(=O)O)c(O)c2)cc1O , give the reported inhibition. 5.67

Please give the measured inhibition for this molecule: COc1ccc(CN2CCC(N3CC(c4ccccc4)(c4ccccc4)OCC3=O)C2)c(O)c1 (stereo not given) -1.54

Fill in: inhibition of CN(Cc1cccc(F)c1)C1CCN(c2cc(NC(=O)c3cccc(F)c3)ccn2)CC1 is ___ 3.06

Returns the measured inhibition for the input molecule. Input: COc1ccc(Nc2nc(C)cc(NCc3ccc(-c4c(C)noc4C)cc3)n2)cc1 17.4

What inhibition value was documented for this molecule, Cc1cccc2nc(-c3cccc(-c4cccc(NC(=O)CNC(=O)c5ccc(O)cc5)c4)c3)[nH]c12 ? 0.25

Record request: inhibition value, item N=c1n(Cc2ccccc2)c2ccccc2n1CC(O)c1ccc(Cl)cc1 (stereo not given) 1.36

Endpoint output: inhibition of CCOC(=O)c1c(C)n(-c2ccccc2)c2ccc(OC(=O)c3ccc(S(=O)(=O)N(CC)CC)cc3)cc12 . Value? 4.6

inhibition lookup needed for Fc1ccc2[nH]c(-c3cccc(-c4ccc(CN5CCCCC5)cc4)c3)nc2c1 , thanks. 4.18

Returns the measured inhibition for the input molecule. Input: CC(CN1CCN(C)CC1)C(=O)Nc1cccc(-c2ccc(-c3nc4cc(F)ccc4[nH]3)cc2)c1 (stereo not given) 4.67

Param item = CC1N=C(N)N=C(N)N1OCc1cccc2ccccc12 (stereo not given) ; retrieve measured inhibition. 1.93
